Sourced from patent US20100009970A1

Assay: in vitro
Details: human, CC50 (uM)
Attribute Measured: CC50 (µM)
The reply should contain only the number, in µM.

## Input Please report the measured CC50 for CN[C@H]1CC[C@@H](c2ccc(Cl)c(Cl)c2)c2ccc(CO)cc21
## Output 14.2

## Input For the compound CN[C@H]1CC[C@@H](c2ccc(Cl)c(Cl)c2)c2ccc(S(=O)(=O)NCCO)cc21 [Sertraline Sulfonamide Ethanol] , report CC50.
## Output 13.8

## Input Please list CC50 recorded for the compound CNC1CCC(c2ccccc2OC)c2ccccc21 (centres unmarked)
## Output 58.6

----------
Test system: Huh7 cells expressing a subgenomic RNA replicon of Con1 (genotype 1b) sequence origin
Experiment: microbe, parasite or virus in culture
Conditions: Hepatitis C virus, Huh-7
Attribute Measured: IC90 (µM)
Please give a number only; it is taken to be in µM.

## Input Hello, please tell me recorded IC90 for this one: CSc1ccc(Oc2ccc(S(N)(=O)=O)cc2CN2CCN(CCO)CC2)cc1C
## Output 17

## Input Retrieve IC90 measured for CSc1ccc(Oc2ccc(Br)cc2CN(C)C)cc1 and print it.
## Output 28.8

## Input Consider the molecule CC(=O)NCc1ccc2c(c1)[C@@H](N(C)C)CC[C@H]2c1ccc(Cl)c(Cl)c1 . State its measured IC90.
## Output 9.72

## Input # return recorded IC90 for entry CSc1ccc(Oc2ccc(S(N)(=O)=O)cc2CN2CC[C@@H](O)C2)cc1C
## Output 7.4
